test system: Johnsongrass (Sorghum halepense, SORHA); experiment: Pre-emerge greenhouse herbicide test, phytotoxicity rating; type: in vivo; conditions: Sorghum halepense, pre-emergence, 336 h, Rate 500 g al/ha, 14 days after application, rating scale 0-100
Observation type: pest or weed control at 500 g/ha (%)
Value expressed in %; do not type the unit.

Worked examples follow.
1. Nn1c(C(F)(F)F)cc(=O)n(-c2cc(Oc3nccc(Cl)n3)c(Cl)cc2F)c1=O [Compound 9-17] ... 90
2. Nn1c(C(F)(F)F)cc(=O)n(-c2cc(Oc3ncccc3C(F)(F)F)c(Cl)cc2F)c1=O [Compound 9-7] ... 100
3. O=c1n(-c2cc(Oc3ncccc3C(F)(F)F)c(Cl)cc2F)c(=S)n2n1CCCC2 [Compound 8-18] ... 100
4. O=c1n(-c2cc(Oc3ncccn3)c(Cl)cc2F)c(=S)n2n1CCCC2 [Compound 8-29] ... 100
5. Nn1c(C(F)(F)F)cc(=O)n(-c2cc(Oc3ccccn3)c(Cl)cc2F)c1=O [Compound 9-15] ... 100

Q) Recorded pest or weed control at 500 g/ha for N#Cc1cccnc1Oc1cc(-n2c(=O)cc(C(F)(F)F)n(N)c2=O)c(F)cc1Cl [Compound 9-9] with Johnsongrass (Sorghum halepense, SORHA), please?
A) 100

Q) Proceed to Nn1c(C(F)(F)F)cc(=O)n(-c2cc(Oc3ncccc3[N+](=O)[O-])c(Cl)cc2F)c1=O [Compound 9-1]
A) 99

Q) Repeat for the following compound: Nn1c(C(F)(F)F)cc(=O)n(-c2cc(Oc3cc([N+](=O)[O-])cc(C(F)(F)F)c3)c(Cl)cc2F)c1=O [Compound 9-23]
A) 70

###

test system: ivyleaf morningglory (Ipomoea hederacea, IPOHE); experiment: Post-emerge greenhouse herbicide test, phytotoxicity rating; assay type: in vivo; settings: 500 g al/ha, 14 days after application
Each entry below carries its reported IPOHE phytotoxicity rating (0-100).

1. Cn1c(C(F)(F)F)nc(-c2cc(Oc3ncccc3[N+](=O)[O-])c(Cl)cc2F)c1Cl ... 65
2. O=c1n(CCCF)nnn1-c1cc(Oc2ncccn2)c(Cl)cc1Cl ... 100
3. O=c1n(CCCF)nnn1-c1cc(Oc2ccc(C(F)(F)F)cn2)c(Cl)cc1F ... 60

Q) Tell me the measured IPOHE phytotoxicity rating (0-100) of `Cn1nc(-c2cc(Oc3ncccn3)c(Cl)cc2F)c(Cl)c1C(F)(F)F` , please.
A) 100

###

System: field corn (Zea mays L., var. Dekalb 535, CORN)
Assay: Pre-emerge greenhouse test, crop damage rating
Type: in vivo
Conditions: 500 g ai/ha, 14 days after application, rating scale 0-100
Method: A standard greenhouse herbicide activity screening system was used to evaluate the herbicidal efficacy and crop safety of these test compounds. […] At 14 days after application of the test materials, phytotoxicity ratings were recorded. […]
Observation type: crop damage rating CORN
Please state the value as a number alone, without comment.

1) O=c1n(CCCF)nnn1-c1cc(Oc2ncccc2[N+](=O)[O-])c(Cl)cc1Cl ... 10
2) CS(=O)(=O)Nc1ccc(Oc2cc(-n3c(=O)cc4n(c3=O)CCC4)c(F)cc2Cl)cc1 ... 0
3) CN1CC(=O)N(c2cc(Oc3ncccn3)c(Cl)cc2F)C1=O ... 5

Q) Name the reported crop damage rating CORN value associated with the compound `O=c1sc(=Nc2cc(Oc3ncccn3)c(Cl)cc2F)n2n1CCCC2`
A) 70
